assay: chemical genetic growth profiling, strain panel (AID 1159580);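 also: tested at 20 µM; growth read once vehicle control cultures reached saturation at 30 °C; 1 = growth at the plate median or of vehicle wells; lower values mean less growth of the strain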; conditions: S. cerevisiae deletion strains, growth OD, locus YNL153C, strain GIM3, stronger effect = lower value
Hit rate of the full screen: of about 5,500 compounds, about 2,000 (36%) were called active. About 18% were inconclusive and are not listed. The list shows a part of the results.
What normalized growth was measured for each of the following?
Numbers only.

Solved cases below.
CC(C)CC(N(C)C)C1(c2ccc(Cl)cc2)CCC1 (centres undefined) :: 1.01
c1cc2c(cc1N=C1SCC3CCCCN13)OCO2 (centres undefined) :: 1.02
COc1ccc2c(c1)c(CC(=O)O)c(C)n2C(=O)c1ccccc1 :: 0.986

Lab note: each compound below needs its normalized growth filled in.
1. O=C(CSCc1c(F)cccc1Cl)NC1Cc2ccccc2C1
2. CCCOc1ccccc1-c1nc2n[nH]nc2c(=O)[nH]1
3. Cc1cccc(NC(=S)NCc2ccncc2)c1
4. O=C1ON=C(CSc2ccccc2)/C1=C/c1ccc(Cl)cc1

[0.977, 1.04, 0.993, 0.0589]
